- system.tested: Stat1alpha, phosphorylated Tyr701 (Homo sapiens, UniProt P42224 P42224:1-750)
- Sequence (P42224 whole entry, one chain of several): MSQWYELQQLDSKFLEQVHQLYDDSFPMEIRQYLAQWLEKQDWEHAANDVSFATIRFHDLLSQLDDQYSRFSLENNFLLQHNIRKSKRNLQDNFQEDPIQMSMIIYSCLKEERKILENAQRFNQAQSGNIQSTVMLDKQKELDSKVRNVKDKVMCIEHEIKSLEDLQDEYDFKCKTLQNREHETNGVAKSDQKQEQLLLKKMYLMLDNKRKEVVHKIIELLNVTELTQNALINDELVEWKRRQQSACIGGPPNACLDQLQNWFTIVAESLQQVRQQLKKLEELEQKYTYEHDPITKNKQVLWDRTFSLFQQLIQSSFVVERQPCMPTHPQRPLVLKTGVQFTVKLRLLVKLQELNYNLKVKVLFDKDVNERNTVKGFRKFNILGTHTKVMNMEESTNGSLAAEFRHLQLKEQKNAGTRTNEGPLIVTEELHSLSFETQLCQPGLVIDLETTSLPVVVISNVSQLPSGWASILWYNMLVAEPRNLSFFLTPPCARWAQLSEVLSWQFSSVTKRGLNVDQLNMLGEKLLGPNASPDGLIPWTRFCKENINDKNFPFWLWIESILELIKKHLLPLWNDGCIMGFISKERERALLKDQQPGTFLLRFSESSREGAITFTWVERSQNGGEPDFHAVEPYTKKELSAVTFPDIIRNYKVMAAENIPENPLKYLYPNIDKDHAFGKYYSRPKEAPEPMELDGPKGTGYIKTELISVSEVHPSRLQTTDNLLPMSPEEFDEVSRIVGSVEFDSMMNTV
- experimental.details: EMSA; apparent Keq, dimer; 40 mM KCl, 10 mM MgCl2, 10 mM CaCl2, RT; complex half-life <0.5 min
- protocol.conditions: tags: baculovirus/Sf9; NEM-alkylated; phosphorylated in vitro by EGF-receptor kinase; chain copies: 2; label: 32P; protruding 5'-TCC

# binder, Kd
records = [
    ("cfosWT (dsDNA) DNA 1: GTATTCCCGTCAATGCA DNA 2: TGCATTGACGGGAATAC", "~1 nM"),
]
